Here's a roundup of IC50 values tested on Proto-oncogene tyrosine-protein kinase receptor Ret (Homo sapiens, UniProt P07949), taken from various published works.
Sequence (P07949 whole entry): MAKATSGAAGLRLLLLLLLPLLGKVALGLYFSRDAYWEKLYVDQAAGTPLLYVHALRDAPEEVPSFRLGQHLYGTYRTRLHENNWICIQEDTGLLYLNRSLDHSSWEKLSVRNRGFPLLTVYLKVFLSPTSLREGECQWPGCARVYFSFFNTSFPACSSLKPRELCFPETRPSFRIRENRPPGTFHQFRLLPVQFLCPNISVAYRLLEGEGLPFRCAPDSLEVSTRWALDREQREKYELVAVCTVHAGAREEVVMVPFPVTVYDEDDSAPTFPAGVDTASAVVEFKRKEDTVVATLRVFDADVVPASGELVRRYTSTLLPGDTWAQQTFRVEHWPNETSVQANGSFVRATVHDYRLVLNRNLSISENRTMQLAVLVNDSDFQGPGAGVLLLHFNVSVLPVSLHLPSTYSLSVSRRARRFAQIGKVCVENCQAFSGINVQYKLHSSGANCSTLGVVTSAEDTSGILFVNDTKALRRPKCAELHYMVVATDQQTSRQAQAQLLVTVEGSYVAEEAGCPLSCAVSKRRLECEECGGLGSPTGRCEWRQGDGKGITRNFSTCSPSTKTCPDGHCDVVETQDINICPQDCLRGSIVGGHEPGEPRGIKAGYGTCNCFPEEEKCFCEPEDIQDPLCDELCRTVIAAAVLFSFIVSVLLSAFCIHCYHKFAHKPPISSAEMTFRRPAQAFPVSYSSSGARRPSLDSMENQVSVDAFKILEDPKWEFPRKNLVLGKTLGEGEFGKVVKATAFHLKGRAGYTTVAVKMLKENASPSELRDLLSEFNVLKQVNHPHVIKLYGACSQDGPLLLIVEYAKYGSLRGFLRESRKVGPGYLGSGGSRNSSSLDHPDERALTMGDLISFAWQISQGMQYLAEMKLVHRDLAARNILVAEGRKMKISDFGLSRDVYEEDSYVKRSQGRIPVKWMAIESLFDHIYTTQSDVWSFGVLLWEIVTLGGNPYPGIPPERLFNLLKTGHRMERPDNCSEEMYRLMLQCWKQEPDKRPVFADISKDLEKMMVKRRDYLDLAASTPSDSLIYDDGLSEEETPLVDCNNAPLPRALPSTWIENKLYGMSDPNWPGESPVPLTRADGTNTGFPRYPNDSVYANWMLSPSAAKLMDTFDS
Rule: measured IC50 below 0.3 nM gets label 1; anything equal to or greater than 0.3 nM gets label 0.

COc1ccc(CN2C3CC2CN(c2ccc(-c4cc(N5CCN(C6CN(c7ccc8c(c7)C(=O)N(C7CCC(=O)NC7=O)C8=O)C6)CC5)cn5ncc(C#N)c45)cn2)C3)cn1 (stereo unspecified) ... label 1
COc1ccc(CN2C3CC2CN(c2ccc(-c4cc(N5CCC(N6CCN(C(=O)CCCCCNc7ccc8c(c7)C(=O)N(C7CCC(=O)NC7=O)C8=O)CC6)CC5)cn5ncc(C#N)c45)cn2)C3)cn1 (stereo unspecified) ... label 0
COc1cncc(-c2cn[nH]c2/C=C/c2ccc(NC(=O)Nc3cc(C(C)(C)C(F)(F)F)on3)c(Cl)c2)c1 ... label 0
COc1ccc(CN2C3CC2CN(c2ccc(-c4cc(N5CCC(N6CCN(C(=O)CCCCCNc7cccc8c7C(=O)N(C7CCC(=O)NC7=O)C8=O)CC6)CC5)cn5ncc(C#N)c45)cn2)C3)cn1 (stereo unspecified) ... label 0
COc1ccc(CN2C3CC2CN(c2ccc(-c4cc(N5CCC(N6CCN(C(=O)CCCNc7cccc8c7C(=O)N(C7CCC(=O)NC7=O)C8=O)CC6)CC5)cn5ncc(C#N)c45)cn2)C3)cn1 (stereo unspecified) ... label 1
Clc1ccc(-c2cn3cccc(COc4nnc5ccc(Cl)nn45)c3n2)c(Cl)c1 ... label 0
